Details: in 2-butanone, 306.65 K
test.readout: solubility (mole fraction)
When you answer, write just the number.

Record O=c1c2ccccc2sc2ccc(Cl)cc12 . Reported solubility (mole fraction): 0.00834

---

Details: in isopropanol, 320.35 K
test.readout: solubility (mole fraction)
Lab note: record just the number, no unit beside it.

Value of solubility (mole fraction) reported for the molecule O=c1c2ccccc2sc2ccc(Cl)cc12 is 0.00179

---

Conditions: in 1,2-dichloroethane, 301.25 K
test.readout: solubility (mole fraction)
The response must contain the number and no unit.

O=c1c2ccccc2sc2ccc(Cl)cc12 has a reported solubility (mole fraction) of 0.015

---

Conditions: in 2-butanone, 331.55 K
test.readout: solubility (mole fraction)
Please reply with the number alone, leaving off any unit.

Input O=c1c2ccccc2sc2ccc(Cl)cc12 . Output solubility (mole fraction): 0.0208

---

Details: in 2-butanone, 311.25 K
test.readout: solubility (mole fraction)
Please state the value as a number alone, without comment.

Field solubility (mole fraction) (entry O=c1c2ccccc2sc2ccc(Cl)cc12 ) reads 0.0101

---

Conditions: in 1,4-dioxane, 315.55 K
test.readout: solubility (mole fraction)

Record summary for O=c1c2ccccc2sc2ccc(Cl)cc12 : reported solubility (mole fraction) = 0.00882

---

Conditions: in methanol, 311.25 K
test.readout: solubility (mole fraction)
Give a plain numeric answer without units written out.

Short answer for O=c1c2ccccc2sc2ccc(Cl)cc12 : solubility (mole fraction) was 0.000414

---

Conditions: in 1,2-dichloroethane, 306.25 K
test.readout: solubility (mole fraction)

Reported solubility (mole fraction) of O=c1c2ccccc2sc2ccc(Cl)cc12 : 0.0173

---

Conditions: in isopropanol, 304.75 K
test.readout: solubility (mole fraction)
Number, no unit, nothing else.

The measured solubility (mole fraction) associated with O=c1c2ccccc2sc2ccc(Cl)cc12 reads 0.000906

---

Details: in ethyl acetate, 330.15 K
test.readout: solubility (mole fraction)
Just the number.

Recorded result, O=c1c2ccccc2sc2ccc(Cl)cc12 , solubility (mole fraction): 0.0129

---

Conditions: in methanol, 301.95 K
test.readout: solubility (mole fraction)
Please reply with the value in numeric form only.

So for O=c1c2ccccc2sc2ccc(Cl)cc12 , the logged solubility (mole fraction) turned out to be 0.000279

---

Settings: in acetonitrile, 329.15 K
test.readout: solubility (mole fraction)
Please reply with the number alone, leaving off any unit.

Just so you know, measured solubility (mole fraction) for O=c1c2ccccc2sc2ccc(Cl)cc12 came out at 0.00265

---

Conditions: in ethanol, 298.15 K
test.readout: solubility (mole fraction)
Number, no unit, nothing else.

Sure, the documented solubility (mole fraction) for O=c1c2ccccc2sc2ccc(Cl)cc12 is 0.000795

---

Conditions: in ethanol, 322.15 K
test.readout: solubility (mole fraction)

Note to self: solubility (mole fraction) recorded for O=c1c2ccccc2sc2ccc(Cl)cc12 was 0.00229

---

Settings: in methanol, 316.15 K
test.readout: solubility (mole fraction)
The reply should be a number, written without any unit.

response.value for O=c1c2ccccc2sc2ccc(Cl)cc12 (field: solubility (mole fraction)) = 0.000535

---

Conditions: in 2-butanone, 301.95 K
test.readout: solubility (mole fraction)
Answer field: number only, no words.

The reported solubility (mole fraction) of the compound O=c1c2ccccc2sc2ccc(Cl)cc12 was 0.00695

---

Conditions: in 1,2-dichloroethane, 326.75 K
test.readout: solubility (mole fraction)
Give the figure by itself; no unit, no explanation.

response.value for O=c1c2ccccc2sc2ccc(Cl)cc12 (field: solubility (mole fraction)) = 0.0275

---

Details: in methanol, 306.65 K
test.readout: solubility (mole fraction)
// keep it numeric: no unit symbol after the value

Looking up O=c1c2ccccc2sc2ccc(Cl)cc12 , I found its solubility (mole fraction) recorded as 0.00036

---

Conditions: in 1,4-dioxane, 326.35 K
test.readout: solubility (mole fraction)

// recorded solubility (mole fraction) for O=c1c2ccccc2sc2ccc(Cl)cc12 : 0.0128

---

Conditions: in methanol, 326.55 K
test.readout: solubility (mole fraction)
Please respond with just the number, no unit label.

For this compound ( O=c1c2ccccc2sc2ccc(Cl)cc12 ), measured solubility (mole fraction) is 0.000878

---

Details: in 1,4-dioxane, 300.45 K
test.readout: solubility (mole fraction)
# print the numeric value only

Summary for this compound, O=c1c2ccccc2sc2ccc(Cl)cc12 : solubility (mole fraction) is 0.00398

---

Conditions: in THF, 302.15 K
test.readout: solubility (mole fraction)

Entry O=c1c2ccccc2sc2ccc(Cl)cc12 ; solubility (mole fraction) = 0.00869

---

Conditions: in ethyl acetate, 298.25 K
test.readout: solubility (mole fraction)

Briefly, solubility (mole fraction) measured for O=c1c2ccccc2sc2ccc(Cl)cc12 : 0.00502

---

Conditions: in isopropanol, 310.25 K
test.readout: solubility (mole fraction)
Quick one: just the number, no unit, thanks!

solubility (mole fraction) measured on O=c1c2ccccc2sc2ccc(Cl)cc12 = 0.0011

---

Conditions: in acetonitrile, 319.75 K
test.readout: solubility (mole fraction)
# respond with the number and nothing more

get_value(item= O=c1c2ccccc2sc2ccc(Cl)cc12 , readout=solubility (mole fraction)) returns 0.0019

---

Settings: in acetone, 309.25 K
test.readout: solubility (mole fraction)
Give a plain numeric answer without units written out.

The value of solubility (mole fraction) measured for the molecule O=c1c2ccccc2sc2ccc(Cl)cc12 turned out to be 0.00381

---

Conditions: in acetonitrile, 299.45 K
test.readout: solubility (mole fraction)

Per the record, O=c1c2ccccc2sc2ccc(Cl)cc12 has solubility (mole fraction) of 0.00093

---

Conditions: in 1,2-dichloroethane, 316.35 K
test.readout: solubility (mole fraction)

The molecule listed as O=c1c2ccccc2sc2ccc(Cl)cc12 has a reported solubility (mole fraction) of 0.022

---

Settings: in 2-butanone, 297.05 K
test.readout: solubility (mole fraction)
Just the number, please.

According to the records, this compound O=c1c2ccccc2sc2ccc(Cl)cc12 displays solubility (mole fraction) of 0.00587

---

Settings: in THF, 307.25 K
test.readout: solubility (mole fraction)

The value of solubility (mole fraction) measured for the molecule O=c1c2ccccc2sc2ccc(Cl)cc12 turned out to be 0.00967

---

Settings: in acetonitrile, 324.35 K
test.readout: solubility (mole fraction)
Give the value as a plain number.

# solubility (mole fraction) of O=c1c2ccccc2sc2ccc(Cl)cc12 = 0.00226

---

Conditions: in ethyl acetate, 308.25 K
test.readout: solubility (mole fraction)

Kindly note the recorded solubility (mole fraction) for O=c1c2ccccc2sc2ccc(Cl)cc12 , which is 0.00683

---

Conditions: in toluene, 300.15 K
test.readout: solubility (mole fraction)
I'd appreciate a reply containing only the number, no unit.

Kindly note the recorded solubility (mole fraction) for O=c1c2ccccc2sc2ccc(Cl)cc12 , which is 0.0138

---

Conditions: in THF, 322.25 K
test.readout: solubility (mole fraction)
// return a plain number; no unit text

The compound listed as O=c1c2ccccc2sc2ccc(Cl)cc12 shows solubility (mole fraction) equal to 0.0118

---

Settings: in isopropanol, 300.55 K
test.readout: solubility (mole fraction)
I only need the number, thanks.

Notebook: O=c1c2ccccc2sc2ccc(Cl)cc12 , solubility (mole fraction) read as 0.000757

---

Conditions: in THF, 312.25 K
test.readout: solubility (mole fraction)
I only need the number, thanks.

Reported solubility (mole fraction) for O=c1c2ccccc2sc2ccc(Cl)cc12 was 0.0106

---

Conditions: in n-propanol, 315.55 K
test.readout: solubility (mole fraction)
A bare number is all that is needed in reply.

Recorded result, O=c1c2ccccc2sc2ccc(Cl)cc12 , solubility (mole fraction): 0.00156

---

Settings: in ethanol, 313.35 K
test.readout: solubility (mole fraction)

Form field solubility (mole fraction), entry O=c1c2ccccc2sc2ccc(Cl)cc12 : 0.0015

---

Details: in THF, 327.55 K
test.readout: solubility (mole fraction)

Entry O=c1c2ccccc2sc2ccc(Cl)cc12 , solubility (mole fraction) reported as 0.0124

---

Details: in toluene, 325.25 K
test.readout: solubility (mole fraction)
Please reply with the number alone, leaving off any unit.

Entry O=c1c2ccccc2sc2ccc(Cl)cc12 — recorded solubility (mole fraction) = 0.0321

---

Settings: in toluene, 295.05 K
test.readout: solubility (mole fraction)
Answer using only a numeral; do not append any unit.

Value of solubility (mole fraction) reported for the compound O=c1c2ccccc2sc2ccc(Cl)cc12 is 0.0112

---

Settings: in n-propanol, 310.65 K
test.readout: solubility (mole fraction)

// solubility (mole fraction) value for O=c1c2ccccc2sc2ccc(Cl)cc12 : 0.00129

---

Settings: in n-propanol, 331.15 K
test.readout: solubility (mole fraction)
// return just the number, without any unit appended

Value of solubility (mole fraction) reported for the compound O=c1c2ccccc2sc2ccc(Cl)cc12 is 0.00277

---

Conditions: in acetonitrile, 315.15 K
test.readout: solubility (mole fraction)
Just the number, please.

// field: solubility (mole fraction); key: O=c1c2ccccc2sc2ccc(Cl)cc12 ; value = 0.0016
